These measurements were taken from ChEMBL document CHEMBL5625263.

Measured Selectivity ratio values are reported for all entries that follow.
assay: Selectivity ratio of inhibition of PKCeta (unknown origin) to inhibition of PKC theta (unknown origin) at 1 mM ATP concentration
Just the number, please, no unit attached.

compound	numeric.result
CC1CCN2c3nc(ccc3C(=O)NC2(C)C)-n2c(=O)[nH]c3nccc(c32)O1 (stereo not given)	997
CC1CCC(C)n2ccc(=O)c3ccc(nc32)-n2c(=O)[nH]c3nccc(c32)O1 (stereo not given)	482
CC1CC(C)Oc2ccnc3[nH]c(=O)n(c23)-c2cccc(n2)O1 (stereo not given)	43
CC1CCCOc2nc(ccc2C(N)=O)-n2c(=O)[nH]c3nccc(c32)O1 (stereo not given)	43

Would you kindly look at the next entry?
Given the compound CC1CCN(C)c2c(F)cnc3cc(F)c(nc23)-n2c(=O)[nH]c3nccc(c32)O1 (stereo not given) , write its reported Selectivity ratio.
62

* * *

assay: Metabolic stability in human hepatocytes assessed as intrinsic clearance measured per 10^6 cells; type: ADME, cell-based, Hepatocyte; conditions: read-out: CLH
// returns 0 unless hepatocyte CLint is strictly below 10 µL/min/1e6 cells, in which case 1

Example entries begin here.
compound	class.assignment
CC1CCC(C)n2ccc(=O)c3ccc(nc32)-n2c(=O)[nH]c3nccc(c32)O1 (stereo not given)	1
CC1CCn2ccc(=O)c3cc(F)c(nc32)-n2c(=O)[nH]c3nccc(c32)O1 (stereo not given)	1
CC1CCCOc2cccc(n2)-n2c(=O)[nH]c3nccc(c32)O1 (stereo not given)	1
CC1CCC(C)c2ccnc3ccc(nc23)-n2c(=O)[nH]c3nccc(c32)O1 (stereo not given)	0
CC1CCCOc2ccnc3[nH]c(=O)n(c23)-c2cccc(n2)O1 (stereo not given)	0

Please let me know if C[C@H](c1ccccc1)N1c2cc(-n3c(=O)[nH]c4ncccc43)ccc2C(=O)NC1(C)C shows hepatocyte CLint below 10 µL/min/1e6 cells.
0

For CC1CC(C)Oc2ccnc3[nH]c(=O)n(c23)-c2cccc(n2)O1 (stereo not given) , is the recorded hepatocyte CLint below the cut-off of 10 µL/min/1e6 cells?
1

Answer whether the compound CC1CCOc2ccnc3ccc(nc23)-n2c(=O)[nH]c3nccc(c32)O1 (stereo not given) has hepatocyte CLint strictly less than 10 µL/min/1e6 cells
1

Check if hepatocyte CLint falls below 10 µL/min/1e6 cells for O=c1[nH]c2nccc3c2n1-c1cccc(n1)OCCCCO3 .
0

A record lists O=c1ccn2c3nc(ccc13)-n1c(=O)[nH]c3nccc(c31)OCCCC2 . Is its hepatocyte CLint below 10 µL/min/1e6 cells?
1

* * *

Property: Selectivity ratio; scope: individual molecules
assay: Selectivity ratio of inhibition of HGK (unknown origin) to inhibition of PKC theta (unknown origin) at 1 mM ATP concentration
Give a plain numeric answer without units written out.

Sample records with Selectivity ratio:
molecule	Selectivity ratio
CC1CCCOc2nc(ccc2C(N)=O)-n2c(=O)[nH]c3nccc(c32)O1 (stereo not given)	51
CC1CC(C)Oc2ccnc3[nH]c(=O)n(c23)-c2cccc(n2)O1 (stereo not given)	40
CC1CCN2c3nc(ccc3C(=O)NC2(C)C)-n2c(=O)[nH]c3nccc(c32)O1 (stereo not given)	14500

Turning to the following molecule.
Identify measured Selectivity ratio corresponding to CC1CCN(C)c2c(F)cnc3cc(F)c(nc23)-n2c(=O)[nH]c3nccc(c32)O1 (stereo not given)
36

* * *

biological target: Protein kinase C theta type (Homo sapiens, UniProt Q04759); test: Inhibition of PKC theta (unknown origin) in presence of ATP at Km
Sequence (Q04759 whole entry): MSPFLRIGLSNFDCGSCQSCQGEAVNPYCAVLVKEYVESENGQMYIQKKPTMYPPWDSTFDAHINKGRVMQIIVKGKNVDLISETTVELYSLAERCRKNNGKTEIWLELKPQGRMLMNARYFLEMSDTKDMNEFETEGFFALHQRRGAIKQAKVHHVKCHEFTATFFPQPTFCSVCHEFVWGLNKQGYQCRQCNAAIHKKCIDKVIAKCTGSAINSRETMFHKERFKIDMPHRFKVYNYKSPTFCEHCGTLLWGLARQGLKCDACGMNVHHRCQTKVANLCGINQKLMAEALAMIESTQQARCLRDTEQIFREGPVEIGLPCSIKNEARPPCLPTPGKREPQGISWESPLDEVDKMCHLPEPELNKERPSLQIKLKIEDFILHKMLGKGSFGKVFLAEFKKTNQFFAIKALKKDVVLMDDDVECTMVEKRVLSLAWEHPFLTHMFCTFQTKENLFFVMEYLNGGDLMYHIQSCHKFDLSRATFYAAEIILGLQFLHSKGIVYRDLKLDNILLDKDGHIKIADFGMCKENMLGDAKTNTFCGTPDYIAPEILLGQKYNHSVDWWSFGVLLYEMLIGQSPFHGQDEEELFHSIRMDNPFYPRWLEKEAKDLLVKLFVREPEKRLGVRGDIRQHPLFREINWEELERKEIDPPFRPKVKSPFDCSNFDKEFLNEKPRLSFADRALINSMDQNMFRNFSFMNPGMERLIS
Each record is given Fulfilled if its reported IC50 is strictly below 1000 pM. Records at or above 1000 pM are given Not fulfilled.

compound	class.assignment
CC1CCC(C)n2ccc(=O)c3cc(F)c(nc32)-n2c(=O)[nH]c3nccc(c32)O1 (stereo not given)	Fulfilled
CC1CCC(C)Oc2ccnc3[nH]c(=O)n(c23)-c2nc(c(C(N)=O)cc2F)O1 (stereo not given)	Fulfilled
CC1CCCOc2nc(ccc2C(N)=O)-n2c(=O)[nH]c3nccc(c32)O1 (stereo not given)	Fulfilled

In the record for CC1CCN2c3nc(ccc3C(=O)NC2(C)C)-n2c(=O)[nH]c3nccc(c32)O1 (stereo not given) , is IC50 less than 1000 pM?
Fulfilled

Just wondering, is IC50 of CC1CCCOc2cccc(n2)-n2c(=O)[nH]c3nccc(c32)O1 (stereo not given) below 1000 pM?
Not fulfilled

Please let me know if CC1CCCOc2nc(c(-c3cnc[nH]3)cc2C(N)=O)-n2c(=O)[nH]c3nccc(c32)O1 (stereo not given) shows IC50 below 1000 pM.
Not fulfilled

Decide: IC50 of CC1CCCOc2nc(c(-c3ccn[nH]3)cc2C(N)=O)-n2c(=O)[nH]c3nccc(c32)O1 (stereo not given) strictly below 1000 pM?
Not fulfilled

Take the compound CC1CCCOc2ccnc3[nH]c(=O)n(c23)-c2nc(c(C(N)=O)cc2-c2ncc[nH]2)O1 (stereo not given) and say whether its IC50 is less than 1000 pM.
Fulfilled

Consider the compound CC1CCN(C)c2c(F)cnc3cc(F)c(nc23)-n2c(=O)[nH]c3nccc(c32)O1 (stereo not given) . Is its IC50 strictly less than 1000 pM?
Fulfilled

* * *

target: Protein kinase C theta type (Homo sapiens, UniProt Q04759); assay: Inhibition of PKC theta (unknown origin) in presence of ATP at Km
reported.endpoint: IC50 (nM)
Record the value in nM, omitting the unit from your answer.

compound	unit.name	IC50
CC1CCOc2ccnc3ccc(nc23)-n2c(=O)[nH]c3nccc(c32)O1 (stereo not drawn)	nM	4.2

Please look at the following compound next.
Could you please provide reported IC50 for CC1CCCOc2nc(c(-c3nnc[nH]3)cc2C(N)=O)-n2c(=O)[nH]c3nccc(c32)O1 (stereo not drawn) ? Thanks!
3.3

* * *

assay: Efflux ratio of apparent permeability across basolateral to apical side over apical to basolateral side in human Caco-2 cells; type: ADME, cell-based
Param label: returns 1 when efflux ratio < 2, returns 0 otherwise, including exact equality.

Example results:
molecule	class.assignment
CC1CCCOc2cccc(n2)-n2c(=O)[nH]c3nccc(c32)O1 (stereo unspecified)	1
O=c1[nH]c2nccc3c2n1-c1cccc(n1)OCCCCO3	1
CC1CCN2c3nc(ccc3C(=O)NC2(C)C)-n2c(=O)[nH]c3nccc(c32)O1 (stereo unspecified)	0

Threshold test, efflux ratio < 2: CC1CCCOc2ccnc3[nH]c(=O)n(c23)-c2ccc3nccc1c3n2 (stereo unspecified)
1

Decide: efflux ratio of CC1CCCOc2ccnc3[nH]c(=O)n(c23)-c2ccc3c(=O)ccn1c3n2 (stereo unspecified) strictly below 2?
0

* * *

assay: Metabolic stability in human hepatocytes assessed as intrinsic clearance measured per 10^6 cells; assay type: ADME, cell-based, Hepatocyte; details: read-out: CLH
# Lookup of reported hepatocyte CLint keyed by entry
Report the figure in µL/min/1e6 cells without appending any unit label.

compound	unit.name	numeric.result
CC1CCN(C)c2ccnc3cc(F)c(nc23)-n2c(=O)[nH]c3nccc(c32)O1 (stereo not given)	µL/min/1e6 cells	10
CC1CCCOc2ccnc3[nH]c(=O)n(c23)-c2nc(c(C(N)=O)cc2-c2ncc[nH]2)O1 (stereo not given)	µL/min/1e6 cells	22
CC1CCCOc2ccnc3[nH]c(=O)n(c23)-c2ccc3c(=O)ccn1c3n2 (stereo not given)	µL/min/1e6 cells	17

Annotate the compound CC1CCCOc2ccnc3[nH]c(=O)n(c23)-c2ccc3nccc1c3n2 (stereo not given) with its measured hepatocyte CLint.
36

Return the recorded hepatocyte CLint value; entry: CC1CCN(C)c2c(F)cnc3cc(F)c(nc23)-n2c(=O)[nH]c3nccc(c32)O1 (stereo not given)
4

* * *

target: Protein kinase C alpha type (Homo sapiens); assay: Inhibition of PKC alpha (unknown origin) in presence of 1 mM ATP
pIC50: −log10 of the molar value.
Param threshold (6) applies to pIC50; output True when value >= threshold, False when value < threshold.

molecule	class.assignment
CC1CCOc2ccnc3ccc(nc23)-n2c(=O)[nH]c3nccc(c32)O1 (centres undefined)	False
CC1CCCOc2ccnc3[nH]c(=O)n(c23)-c2nc(c(C(N)=O)cc2-c2ncc[nH]2)O1 (centres undefined)	False
CC1CCn2ccc(=O)c3cc(F)c(nc32)-n2c(=O)[nH]c3nccc(c32)O1 (centres undefined)	False

Check if pIC50 >= 6 (inclusive). Item: CC1CCC(C)Oc2ccnc3[nH]c(=O)n(c23)-c2nc(c(C(N)=O)cc2F)O1 (centres undefined)
True

Record CC1CCC(C)n2ccc(=O)c3cc(F)c(nc32)-n2c(=O)[nH]c3nccc(c32)O1 (centres undefined) ; criterion: pIC50 no lower than 6. Met?
True

* * *

target: Protein kinase C theta type (Homo sapiens); experiment: Inhibition of PKC theta (unknown origin) in presence of 1 mM ATP
Listed compounds paired with reported IC50
Write down the numeric answer in nM and omit the unit.

Worked cases, answers included:
compound	reported.endpoint	numeric.result
CC1CCn2ccc(=O)c3cc(F)c(nc32)-n2c(=O)[nH]c3nccc(c32)O1 (stereo not given)	IC50	5
CC1CCC(C)Oc2ccnc3[nH]c(=O)n(c23)-c2nc(c(C(N)=O)cc2F)O1 (stereo not given)	IC50	0.9

Now, please, on to the next compound.
Given CN1CCN(c2nc(C3=C(c4c[nH]c5ccccc45)C(=O)NC3=O)c3ccccc3n2)CC1 [SOTRASTAURIN] , respond with its IC50.
3.4
